Experiment Summary: Intrinsic clearance in human liver microsomes
Type: ADME, Microsome
Condition Info: read-out: CLH
Please go through the items and note down their microsomal CLint.
# value in µL/min/mg; strip the unit string

Output measured microsomal CLint for this item: Clc1ccc([C@@H]2CC=CCNC2)cc1Cl
50

Specify microsomal CLint for CN1CC=CCC(c2ccc(Cl)c(Cl)c2)C1 (racemic) and stop.
57

Look up microsomal CLint of CN1CC=CC[C@@H](c2ccc(Cl)c(Cl)c2)C1 and report it.
86

Look up microsomal CLint of OCC[C@]1(c2cc3ccccc3o2)CCCNC1 and report it.
22

Complete the entry with microsomal CLint for C1=CCC(c2ccc3ccccc3c2)CNC1 (centres undefined)
94

Give me measured microsomal CLint, please, for this molecule: Clc1ccc(C2CC=CCNC2)cc1Cl (racemic)
30

Return microsomal CLint for the following molecule: CN1Cc2c(N)cccc2C(c2ccccc2)C1 (racemic) [NOMIFENSINE]
37

Name the recorded microsomal CLint of the molecule listed here: Clc1ccc(C2CCCCNC2)cc1Cl (racemic)
35

Output measured microsomal CLint for this item: Cc1cc(C2CC=CCN(C)C2)ccc1Cl (centres undefined)
85

Give the value of microsomal CLint reported for the following: Fc1ccc(C2CC=CCNC2)cc1Cl (centres undefined)
15

Respond only with microsomal CLint recorded for Cc1ccc(C2CC=CCNC2)cc1Cl (centres undefined)
100

Indicate the recorded microsomal CLint value for this molecule: CN1CC=CCC(c2cc3ccccc3o2)C1 (centres undefined)
97

Please indicate microsomal CLint recorded for Clc1ccc([C@H]2CC=CCNC2)cc1Cl
33

Give the reported value of microsomal CLint for this record: CN1CC=CC[C@H](c2ccc(Cl)c(Cl)c2)C1
51

Retrieve microsomal CLint measured for C1=CCC(c2cc3ccccc3o2)CNC1 (centres undefined) and print it.
83

Annotate the molecule OCCN1CC=CC[C@H](c2ccc(Cl)c(Cl)c2)C1 with its measured microsomal CLint.
52

Read off the recorded microsomal CLint for COCCN1CC=CC[C@H](c2ccc(Cl)c(Cl)c2)C1
150

----------
For each entry below, report its Ki value.
Tested System: Sodium-dependent serotonin transporter (Homo sapiens)
Sequence (P31645 whole entry): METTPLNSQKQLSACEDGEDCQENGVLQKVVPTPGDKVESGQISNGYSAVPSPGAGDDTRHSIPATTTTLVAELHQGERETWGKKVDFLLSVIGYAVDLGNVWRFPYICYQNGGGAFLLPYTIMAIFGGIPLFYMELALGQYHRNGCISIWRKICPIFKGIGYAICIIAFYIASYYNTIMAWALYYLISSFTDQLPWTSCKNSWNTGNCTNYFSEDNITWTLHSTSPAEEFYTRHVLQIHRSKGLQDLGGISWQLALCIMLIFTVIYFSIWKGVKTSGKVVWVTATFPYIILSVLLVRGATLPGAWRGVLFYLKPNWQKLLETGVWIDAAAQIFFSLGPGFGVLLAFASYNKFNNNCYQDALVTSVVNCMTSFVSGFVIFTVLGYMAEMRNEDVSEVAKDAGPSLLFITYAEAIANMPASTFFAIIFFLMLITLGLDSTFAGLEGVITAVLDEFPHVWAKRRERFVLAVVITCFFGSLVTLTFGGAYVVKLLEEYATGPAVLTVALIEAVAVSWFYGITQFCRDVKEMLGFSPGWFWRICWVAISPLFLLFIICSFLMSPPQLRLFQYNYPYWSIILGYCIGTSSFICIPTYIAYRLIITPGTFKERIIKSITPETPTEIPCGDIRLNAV
Experiment Summary: Inhibition of human recombinant SERT expressed in HEK cells
Reply with just the number (in µM).

Provide measured Ki value, entry: Clc1ccc(C2CCCCNC2)cc1Cl (racemic)
0.14

Give a short answer stating reported Ki for Clc1ccc(C2CC=CCNC2)cc1Cl (racemic) .
0.22

Using known records, supply Ki for CN1CC=CC[C@@H](c2ccc(Cl)c(Cl)c2)C1
0.13

Read off the recorded Ki for Fc1ccc(C2CC=CCNC2)cc1Cl (centres undefined)
1.5

Tell us which Ki value is on record for Clc1ccc([C@@H]2CC=CCNC2)cc1Cl
0.42

Specify reported Ki for the molecule shown: CN1CC=CC[C@H](c2ccc(Cl)c(Cl)c2)C1
0.083

Retrieve Ki measured for Cc1cc(C2CC=CCN(C)C2)ccc1Cl (centres undefined) and print it.
0.27

Give the reported value of Ki for this record: CN1CC=CCC(c2cc3ccccc3o2)C1 (centres undefined)
0.8

For the molecule COCCN1CC=CC[C@H](c2ccc(Cl)c(Cl)c2)C1 , report Ki.
0.54

Give reported Ki value for C1=CCC(c2cc3ccccc3o2)CNC1 (centres undefined)
0.24

Hello, please tell me recorded Ki for this one: C1=CCC(c2ccc3ccccc3c2)CNC1 (centres undefined)
0.063

Using known records, supply Ki for OCC[C@]1(c2ccc(Cl)c(Cl)c2)CCCNC1
0.042

Check the records and state Ki for CN1CCCCC(c2ccc(Cl)c(Cl)c2)C1 (racemic)
0.26

Could you please provide reported Ki for CN1CC=CCC(c2ccc(Cl)c(Cl)c2)C1 (racemic) ? Thanks!
0.1

Provide Ki value for the following molecule: Cc1ccc(C2CC=CCNC2)cc1Cl (centres undefined)
0.6

Give the reported Ki for this molecule. OCC[C@]1(c2cc3ccccc3o2)CCCNC1
0.23

Note Ki for the molecule shown: OCC[C@@]1(c2ccc(Cl)c(Cl)c2)CCCNC1
0.25

Indicate the recorded Ki value for this molecule: Clc1ccc([C@H]2CC=CCNC2)cc1Cl
0.22

Find the measured Ki of OCCN1CC=CC[C@H](c2ccc(Cl)c(Cl)c2)C1 and report it.
0.15

----------
Tested on: Rattus norvegicus
Experiment Summary: In vivo DAT occupancy in sc dosed Long Evans rat striatum assessed as unbound plasma levels equaling 50% occupancy using [3H]WIN 35428 administered 30 mins before [3H]WIN 35428 challenge measured after 60 mins
Assay type: functional, organism-based
Property Name: EC50 (nM)
Report the value in nM with no unit label.

Answer with the recorded EC50 for the compound listed here: Clc1ccc([C@H]2CC=CCNC2)cc1Cl
220

----------
Experiment Summary: Ratio of drug level in whole brain to plasma in Long Evans rat
Format: ADME, cell-free
Condition Info: whole brain and plasma, read-out: BPR
Property Name: Kp
Answer as a number with no unit attached.

Assign Kp to the following record: OCC[C@]1(c2cc3ccccc3o2)CCCNC1
5.8

Return Kp (reported value) for this molecule: Clc1ccc([C@H]2CC=CCNC2)cc1Cl
4.8

Return value of Kp for input CN1Cc2c(N)cccc2C(c2ccccc2)C1 (racemic) , no commentary.
10.1

----------
Tested System: Sodium-dependent dopamine transporter (Homo sapiens, UniProt Q01959)
Sequence (Q01959 whole entry): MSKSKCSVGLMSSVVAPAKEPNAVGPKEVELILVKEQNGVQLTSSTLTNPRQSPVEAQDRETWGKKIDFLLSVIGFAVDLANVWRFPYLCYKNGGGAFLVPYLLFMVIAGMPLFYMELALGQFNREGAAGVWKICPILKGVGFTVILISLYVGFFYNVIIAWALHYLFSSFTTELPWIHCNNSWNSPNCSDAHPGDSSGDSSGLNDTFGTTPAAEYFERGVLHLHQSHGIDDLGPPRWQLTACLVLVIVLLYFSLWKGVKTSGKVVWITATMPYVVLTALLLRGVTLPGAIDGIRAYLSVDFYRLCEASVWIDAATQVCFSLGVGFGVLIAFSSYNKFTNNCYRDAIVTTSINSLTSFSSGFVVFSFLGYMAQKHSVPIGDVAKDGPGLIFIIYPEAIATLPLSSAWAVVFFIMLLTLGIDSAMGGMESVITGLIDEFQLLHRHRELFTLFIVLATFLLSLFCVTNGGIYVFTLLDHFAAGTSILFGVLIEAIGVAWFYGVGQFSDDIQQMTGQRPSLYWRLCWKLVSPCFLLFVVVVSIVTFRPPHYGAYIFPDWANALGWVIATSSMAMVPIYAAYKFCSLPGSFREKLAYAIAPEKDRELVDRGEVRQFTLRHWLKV
Experiment Summary: Inhibition of human recombinant DAT expressed in HEK cells
pKi: −log10 of the molar value.
Would you please tag the item 1 when its pKi is 7 or above, and -1 when it is below?

Threshold query (pKi >= 7) on CN1CC=CCC(c2cc3ccccc3o2)C1 (centres undefined)
1

Check the entry COCCN1CC=CC[C@H](c2ccc(Cl)c(Cl)c2)C1 : does pKi equal or exceed 7?
1

Is it the case that Clc1ccc(C2CC=CCNC2)cc1 (centres undefined) has pKi reaching or exceeding 7?
1

Answer whether pKi of Cc1cc(C2CC=CCN(C)C2)ccc1Cl (centres undefined) is greater than or equal to 7.
1

Reported pKi at or above 7? OCC[C@]1(c2cc3ccccc3o2)CCCNC1
1

Identify whether the reported pKi of the following compound is 7 or greater: Clc1ccc([C@@H]2CC=CCNC2)cc1Cl
1

Given Clc1cccc(C2CC=CCNC2)c1 (centres undefined) , state whether its pKi is at least 7.
-1

Does the reported pKi for CN1CCCCC(c2ccc(Cl)c(Cl)c2)C1 (racemic) fall at or above the 7 mark?
1

Kindly determine if pKi recorded for Clc1ccc(C2CC=CCNC2)cc1Cl (racemic) is above or exactly 7.
1

I'd appreciate it if you could say whether C1=CCC(c2ccc3ccccc3c2)CNC1 (centres undefined) has pKi at least equal to 7.
1

API: above_or_equal(metric=pKi, cutoff=7) for item OCC[C@@]1(c2cc3ccccc3o2)CCCNC1
-1

Does C1=CCC(c2cc3ccccc3o2)CNC1 (centres undefined) have a reported pKi of at least 7?
1

----------
Tested System: Voltage-gated inwardly rectifying potassium channel KCNH2 (Homo sapiens)
Sequence (Q12809 whole entry): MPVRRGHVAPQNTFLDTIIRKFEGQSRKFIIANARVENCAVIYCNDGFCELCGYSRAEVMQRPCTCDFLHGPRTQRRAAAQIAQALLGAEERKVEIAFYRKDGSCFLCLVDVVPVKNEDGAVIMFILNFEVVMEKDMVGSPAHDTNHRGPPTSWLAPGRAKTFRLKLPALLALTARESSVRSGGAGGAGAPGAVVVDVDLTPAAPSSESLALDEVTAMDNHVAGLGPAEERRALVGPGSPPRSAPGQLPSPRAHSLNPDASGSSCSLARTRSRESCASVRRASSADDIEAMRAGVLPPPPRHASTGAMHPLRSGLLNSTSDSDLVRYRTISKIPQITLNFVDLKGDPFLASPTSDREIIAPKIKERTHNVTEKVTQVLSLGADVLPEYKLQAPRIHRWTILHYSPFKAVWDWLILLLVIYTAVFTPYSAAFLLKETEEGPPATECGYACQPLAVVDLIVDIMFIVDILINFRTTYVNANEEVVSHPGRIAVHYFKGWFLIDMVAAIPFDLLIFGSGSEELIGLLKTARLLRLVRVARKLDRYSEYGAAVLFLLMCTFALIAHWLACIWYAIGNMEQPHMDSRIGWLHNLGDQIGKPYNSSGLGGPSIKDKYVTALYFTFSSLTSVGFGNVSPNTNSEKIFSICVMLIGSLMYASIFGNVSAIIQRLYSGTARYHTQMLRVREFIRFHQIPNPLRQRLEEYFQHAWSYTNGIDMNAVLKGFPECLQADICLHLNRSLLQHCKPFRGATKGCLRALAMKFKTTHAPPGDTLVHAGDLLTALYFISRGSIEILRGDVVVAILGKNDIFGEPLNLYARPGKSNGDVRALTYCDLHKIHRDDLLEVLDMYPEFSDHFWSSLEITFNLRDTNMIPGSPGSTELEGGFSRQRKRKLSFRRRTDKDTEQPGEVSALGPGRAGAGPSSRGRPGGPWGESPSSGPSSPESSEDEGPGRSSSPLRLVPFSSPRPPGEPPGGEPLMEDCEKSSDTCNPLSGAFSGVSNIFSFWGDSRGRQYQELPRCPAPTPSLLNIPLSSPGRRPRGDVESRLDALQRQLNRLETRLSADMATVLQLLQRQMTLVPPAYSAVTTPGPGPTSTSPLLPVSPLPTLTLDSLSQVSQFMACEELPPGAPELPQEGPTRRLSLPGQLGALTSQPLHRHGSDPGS
Experiment Summary: Inhibition of human ERG expressed in CHO-K1 cells by electrophysiological assay
Assignment: determine reported pIC50 for the given compounds.
API: returns pIC50 as number; meaning -log10 of concentration in mol/L.

Write down pIC50 measured for item Clc1ccc(C2CCCCNC2)cc1Cl (racemic)
5.21

Determine its reported pIC50: CN1CCCCC(c2ccc(Cl)c(Cl)c2)C1 (racemic)
5.00

Please report pIC50 for the following compound: Cc1cc(C2CC=CCNC2)ccc1Cl (centres undefined)
4.59

Find the measured pIC50 of CN1CC=CCC(c2cc3ccccc3o2)C1 (centres undefined) and report it.
4.82

Please list pIC50 recorded for the compound C1=CCC(c2cc3ccccc3o2)CNC1 (centres undefined)
4.72

Give pIC50 for the following compound: COCCN1CC=CC[C@H](c2ccc(Cl)c(Cl)c2)C1
5.28

Give recorded pIC50. OCCN1CC=CC[C@H](c2ccc(Cl)c(Cl)c2)C1
5.00

Write down pIC50 measured for item Cc1cc(C2CC=CCN(C)C2)ccc1Cl (centres undefined)
4.59

----------
Please go through the items and note down their Ki.
Tested System: UniProt:P23975
Sequence (P23975 whole entry): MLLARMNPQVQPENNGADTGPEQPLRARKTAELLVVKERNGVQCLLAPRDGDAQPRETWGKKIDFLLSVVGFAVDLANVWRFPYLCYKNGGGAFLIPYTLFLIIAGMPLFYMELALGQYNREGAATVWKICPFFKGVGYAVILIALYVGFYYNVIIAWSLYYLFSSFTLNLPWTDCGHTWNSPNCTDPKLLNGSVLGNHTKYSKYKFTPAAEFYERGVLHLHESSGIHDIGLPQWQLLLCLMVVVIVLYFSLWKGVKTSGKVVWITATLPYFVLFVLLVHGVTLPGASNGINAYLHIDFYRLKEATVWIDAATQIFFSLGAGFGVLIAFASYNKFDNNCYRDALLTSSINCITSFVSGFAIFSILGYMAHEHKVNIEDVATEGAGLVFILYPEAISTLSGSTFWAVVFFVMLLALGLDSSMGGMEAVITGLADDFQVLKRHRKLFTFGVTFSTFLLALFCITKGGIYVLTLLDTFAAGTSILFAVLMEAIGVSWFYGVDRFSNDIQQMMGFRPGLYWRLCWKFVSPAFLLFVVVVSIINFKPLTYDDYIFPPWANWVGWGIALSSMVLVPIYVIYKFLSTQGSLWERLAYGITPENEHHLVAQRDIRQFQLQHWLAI
Experiment Summary: Inhibition of human recombinant NET expressed in HEK cells
Respond with the bare value in nM.

Output Ki of Fc1ccc(C2CC=CCNC2)cc1Cl (stereo not drawn)
130

Please report Ki for the following molecule: Clc1ccc(C2CC=CCNC2)cc1 (stereo not drawn)
250

Quickly give me recorded Ki for Clc1ccc([C@@H]2CC=CCNC2)cc1Cl
24

Note Ki for the molecule shown: Cc1cc(C2CC=CCNC2)ccc1Cl (stereo not drawn)
170

Indicate the recorded Ki value for this molecule: OCC[C@]1(c2ccc(Cl)c(Cl)c2)CCCNC1
3.3

Provide only the value of recorded Ki for CN1CCCCC(c2ccc(Cl)c(Cl)c2)C1 (racemic)
74

Quickly give me recorded Ki for C1=CCC(c2ccc3ccccc3c2)CNC1 (stereo not drawn)
25

State its Ki for this molecule: Clc1cccc(C2CC=CCNC2)c1 (stereo not drawn)
430

Give me measured Ki, please, for this molecule: Cc1cc(C2CC=CCN(C)C2)ccc1Cl (stereo not drawn)
130

Return value of Ki for input OCC[C@]1(c2cc3ccccc3o2)CCCNC1 , no commentary.
4

Indicate the recorded Ki value for this molecule: CN1CC=CCC(c2ccc(Cl)c(Cl)c2)C1 (racemic)
57

Look up and report measured Ki for this entry: COCCN1CC=CC[C@H](c2ccc(Cl)c(Cl)c2)C1
15

Name the recorded Ki of the item Clc1ccc(C2CCCCNC2)cc1Cl (racemic) in your answer.
130
